# STUDY SYSTEM: Platelet-activating factor receptor (Oryctolagus cuniculus)
# ASSAY SUMMARY: […] was measured as the IC50 for aggregation of washed rabbit platelets after incubation for 30 min at 37 C.
QUANTITY MEASURED: IC50 (µM)
Your answer should be a plain number; it is taken to be in µM.

CCCCCCC(CCCCCC)CCCCCCCCCCCOCC(COP(=O)([O-])OCC[N+](C)(C)C)OC (stereo not given) = 1.5

What value of IC50 has been reported for the following molecule? COC(COCCCCCCCCCCCCCCCCc1ccccc1)COP(=O)([O-])OCC[N+](C)(C)C (stereo not given)
20

* * *

# STUDY SYSTEM: Platelet-activating factor receptor (Oryctolagus cuniculus)
# ASSAY SUMMARY: […] was measured as the IC50 for aggregation of washed rabbit platelets after incubation for 30 min at 37 C.
QUANTITY MEASURED: IC50

CCCCCCCCCCCCCCCCC(=O)COCC(COP(=O)([O-])OCC[N+](C)(C)C)OC (stereo not drawn) = > 200 µM
COC(COCCCCCCCCCCC(=O)c1ccccc1)COP(=O)([O-])OCC[N+](C)(C)C (stereo not drawn) = > 200 µM

Now look at this entry.
What value of IC50 has been reported for the following molecule? CCCCCCCCC(CCCCCCOCC(COP(=O)([O-])OCC[N+](C)(C)C)OC)c1ccccc1 (stereo not drawn)
> 200 µM
